Hey, just so you know, these numbers are from PubChem BioAssay AID179.

System: CEM cells HIV-1 protection, formazan growth assay
assay.procedure: NCI AIDS Antiviral Assay
Where a SMILES comes first, the peptide text is derived from it. The star is where a group is joined. Boc = CC(C)(C)OC(=O)*
attribute.measured: EC50

Take a look at these entries with their results.
INSERT INTO results (compound, result) VALUES
  ('CCOC(=O)COc1ccc(S(=O)(=O)c2ccc(OCC(=O)OCC)cc2)cc1', '> 200 µM'),
  ('O=c1[nH]c2nc[nH]c2c(=O)n1C1CCCCC1', '> 200 µM'),
  ('CC(NC(=O)C(NC(=O)OC(C)(C)C)C(C)C)C(=O)N1CCCC1C(=O)NCC(=O)NC(C(=O)NCC(=O)O)C(C)C (stereo not given) (Boc-VAPGVG-OH; configuration not given here)', '> 200 µM'),
  ('Cc1cn(CCCCOC(=O)NC(CCCN=C(N)N)C(=O)O)c(=O)[nH]c1=O (stereo not given)', '> 200 µM'),
  ('O=C1c2cccc3c([N+](=O)[O-])ccc(c23)C(=O)N1CC1CCCO1 (stereo not given)', '> 2 µM'),
  ('O=C(O)C1CCC(c2ccc(F)cc2)=N1 (stereo not given)', '> 200 µM'),
  ('Clc1cccc(Sc2ccccc2)c1', '> 23.4 µM'),
  ('Cc1ccc(SC[C@@]2(C(F)F)NC(=O)NC2=O)cc1', '> 200 µM'),
  ('COc1ccc(C[C@H]2COC(=O)[C@@H]2Cc2ccc(Br)cc2)cc1OC', '> 200 µM');

(Q) Report its EC50 with CEM cells HIV-1 protection, formazan growth assay as the test system: `CNc1nc(SC)nc2c1S(=O)(=O)N=CN2`
(A) > 263 µM

* * *

System: CEM cells HIV-1 protection, formazan growth assay
assay.procedure: NCI AIDS Antiviral Assay;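 active means compounds giving half or more protection of infected cells from virus-caused growth loss, again on retest; inactive means the rest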
A correct response names exactly one class from y (active), n (inactive)

See these solved cases before continuing.
INSERT INTO results (molecule, label_class) VALUES
  ('Cc1csc(NC23CC4CC(CC(C4)C2)C3)[n+]1C(P(=O)([O-])O)P(=O)(O)O (stereo not given)', 'n'),
  ('CC1CC(NN(C)C)=C(C#N)C1(C#N)C#N (stereo not given)', 'n'),
  ('Cc1ccc2nc(N/N=C/c3ccc(C)s3)cc(C)c2c1', 'n'),
  ('C/C(O)=C(/C=N/C(=S)Nc1ccccc1)C(=O)Nc1ccccc1C', 'n'),
  ('CCOP(=O)(OCC)/C(C#N)=C/c1cccn1Cc1ccccc1', 'n');

(Q) Test call, this molecule: C=C(C(=O)O)C1CC[C@@]2(C)CC(O)CC(=C)C2C1 (stereo not given in full)
(A) n

(Q) Test call, this molecule: Cc1ccc(S(=O)(=O)NC(CSSCC(NS(=O)(=O)c2ccc(C)cc2)C(=O)OC(C)(C)C)C(=O)OC(C)(C)C)cc1 (stereo not given)
(A) n

(Q) Test call, this molecule: `O=CN/C=C/c1ccccc1`
(A) n

(Q) Test call, this molecule: BrC(=C(c1ccc(OC2CCCCO2)cc1)c1ccc(OC2CCCCO2)cc1)c1ccccc1 (stereo not given)
(A) y

(Q) Test call, this molecule: `CN(C)C=C1C=CC=C1`
(A) y

(Q) Test call, this molecule: COc1cc2c(cc1O)C1Cc3cc(OC)c(OC)cc3C(C2)N1C (stereo not given)
(A) n

(Q) Test call, this molecule: `O=C(/C=C/c1cccs1)c1ccc(C(=O)/C=C/c2cccs2)cc1`
(A) n

(Q) Test call, this molecule: `CCOC(=O)/C(=C\c1ccc[nH]1)C(=O)c1ccccc1`
(A) n

(Q) Test call, this molecule: `O=P1(O)c2ccccc2-c2ccccc21`
(A) n

(Q) Test call, this molecule: CC(c1ccccc1)[P+](c1ccccc1)(c1ccccc1)c1ccccc1 (stereo not given)
(A) n

(Q) Test call, this molecule: `O=C1C(=Cc2cccc(F)c2)C(=O)c2ccccc21`
(A) n

(Q) Test call, this molecule: `COc1c(C)c(C/C=C(\C)CCCCO)c(OC)c(OC)c1OC`
(A) n

(Q) Test call, this molecule: `CC(=O)Oc1c(OC(C)=O)c(C=O)c2c(OC(C)=O)c(-c3c(C)cc4c(C(C)C)c(OC(C)=O)c(OC(C)=O)c(C=O)c4c3OC(C)=O)c(C)cc2c1C(C)C`
(A) n

(Q) Test call, this molecule: `CN(C)c1ccc(C=Nc2ccc(S(N)(=O)=O)cc2)cc1`
(A) n

(Q) Test call, this molecule: `CCc1cc2c(oc3cc(C)ccc32)c(=O)n1C`
(A) n

* * *

System: CEM cells HIV-1 protection, formazan growth assay
assay.procedure: NCI AIDS Antiviral Assay
Calls of active or inactive are those of the source.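 Rule for the calls: active = compounds giving half or more protection of infected cells from virus-caused growth loss, again on retest; inactive = the rest.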
attribute.measured: outcome

Take a look at these entries with their results.
INSERT INTO results (compound, attribute_measured, result) VALUES
  ('O=P1(c2ccccc2)C=C(c2ccccc2)NC(c2ccccc2)=C1', 'outcome', 'inactive'),
  ('O=C(O)CNS(=O)(=O)c1ccc(NCc2ccccc2)cc1', 'outcome', 'inactive'),
  ('COc1ccc2cc1Oc1ccc(cc1)CC1c3cc(c(OC)cc3CCN1C)Oc1c(OC)c(OC)c(OC)c3c1[C@H](C2)N(C)CC3 (stereo partly specified)', 'outcome', 'inactive'),
  ('CC(C)CC(=O)[O-].N.N.N.N.N.[Co+3].[O-][Cl+3]([O-])([O-])[O-]', 'outcome', 'inactive'),
  ('O=C(/C=C/c1cc(F)ccc1F)OCCc1ccccc1', 'outcome', 'inactive'),
  ('CCOC(=O)NC1=NCC(C)(C)S1', 'outcome', 'inactive');

Quick batch: outcome for everything below.
1. Oc1cc(Cl)cc2cc(Br)cnc12
2. C[C@H](C(=O)O)C(=O)NC(=O)N(Cc1ccccc1)N=O

(A)
1. inactive
2. inactive

Quick batch: outcome for everything below.
1. O=[N+]([O-])c1ccc2ncccc2c1CCc1c([N+](=O)[O-])ccc2ncccc12
2. O=C1CCCCN1
3. CC(C)OP(=O)(OC(C)C)C(N(C)C)P(=O)(OC(C)C)OC(C)C.[Cl][Sn]([Cl])([Cl])[c]1ccccc1

(A)
1. inactive
2. inactive
3. inactive

* * *

Tested on: CEM cells HIV-1 protection, formazan growth assay
assay.procedure: NCI AIDS Antiviral Assay
condition: measured here: growth of uninfected CEM cells
Please note: IC50 exactly at 40 µM is NOT MET. Only values below 40 µM get MET.

See these solved cases before continuing.
INSERT INTO assay_data (molecule, label_class) VALUES
  ('CNc1ccc(/C=C2\C=Cc3ccccc32)cc1', 'NOT MET'),
  ('Cc1ccc2c(c1)[nH]c(=S)n2/C=C(/c1ccc(Cl)cc1)S(=O)(=O)Cc1ccc(Cl)cc1', 'NOT MET');

(Q) Take the molecule CSC(=S)CC(O)[C@@H]1CC2c3ccccc3C1c1ccccc12 (stereo not given in full) and say whether its IC50 is less than 40 µM.
(A) MET

(Q) Take the molecule `CCOC(=O)c1c(C)c(=O)cnc2c(C#N)cnn12` and say whether its IC50 is less than 40 µM.
(A) NOT MET

(Q) Take the molecule O=C1C=CC(=O)[C@H]2C3C=CC(C4C3C3(Cl)C(Cl)=C(Cl)[C@]4(Cl)C3(Cl)Cl)[C@@H]12 (stereo not given in full) and say whether its IC50 is less than 40 µM.
(A) MET

(Q) Take the molecule `N#C/C(=C\c1ccc(O)c(O)c1)C(=O)NCCCCCCNC(=O)/C(C#N)=C/c1ccc(O)c(O)c1` and say whether its IC50 is less than 40 µM.
(A) NOT MET

(Q) Take the molecule CO[C@H](C(=O)O[C@H]1C(=O)N2CC[C@@H]3CCC[C@H]1C32C)c1ccccc1 (stereo not given in full) and say whether its IC50 is less than 40 µM.
(A) NOT MET

(Q) Take the molecule `CC1(C)CC[C@H](C2=CC(=O)c3c(O)ccc(O)c3C2=O)O1` and say whether its IC50 is less than 40 µM.
(A) MET

(Q) Take the molecule `O=[N+]([O-])c1cc(F)ccc1S(=O)(=O)c1ccccc1` and say whether its IC50 is less than 40 µM.
(A) MET

* * *

System: CEM cells HIV-1 protection, formazan growth assay
assay.procedure: NCI AIDS Antiviral Assay;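 active = compounds giving half or more protection of infected cells from virus-caused growth loss, again on retest; inactive = the rest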
A correct response names exactly one class from active, inactive

See these solved cases before continuing.
INSERT INTO measurements (compound, label_class) VALUES
  ('CCN1CCC2(CC1)OC(c1ccccc1)C(c1ccccc1)O2 (configuration not stated)', 'inactive'),
  ('COc1ccc(/C=C/c2ccc3ccccc3n2)cc1OC', 'inactive'),
  ('O=C/C1=C/C2=Cc3ccccc3C=C(/C=C(/C=O)C1)C2', 'inactive'),
  ('O=c1ccn(C2OC(CN(O)CCC3C(CO)OC(n4ccc(=O)[nH]c4=O)C3O)C(O)C2O)c(=O)[nH]1 (configuration not stated)', 'inactive'),
  ('Cc1cccc2c(=O)c3c(O)cc4c(c3n(C)c12)C=CC(C)(C)O4', 'inactive');

(Q) Test call, this compound: CC(C)=CCC[C@@H](C)C1[C@@H](OC2OC(CO)C(O)C(O)C2O)CC2(C)[C@@H]3CC(=O)C4C(C)(C)[C@@H](OC5OC(CO)C(O)C(O)C5O)CC[C@@]45C[C@@]35CC[C@]12C (some centres not stated)
(A) inactive

(Q) Test call, this compound: `C/C(CCn1[nH]c(=O)ccc1=O)=N\NC(=O)C(N)=O`
(A) inactive

(Q) Test call, this compound: CCCCC(=O)Oc1c(Cl)cc(C(=CCC[C@H]2CC[C@@]3(C)[C@@H](CC[C@@H]4[C@@H]3CC[C@]3(C)[C@@H](C(C)CCCC(C)C)CC[C@@H]43)C2)c2cc(Cl)c(OC(=O)CCCC)c(C(=O)O)c2)cc1C(=O)O (some centres not stated)
(A) active
